These data points were gathered from patent US20260374766A1.

# Tested on: H1299 p53 R273H
# experimentalProtocol: Cell Proliferation Assay (CellTiter-Glo, CTG), H1299 p53 R273H (NClH1299-inducible p53 R273H)
# Format: cell-based
# conditionSet: Homo sapiens, NCI-H1299, 120 h, CellTiter-Glo, H1299 p53 R273H, 5 days
// reported IC50 for each item listed

Solved cases below.
CNC(=O)c1ccc(OC)c(NCC#Cc2cc3c(N[C@@H]4CN(C)C[C@@H]4F)nccn3c2SC(F)(F)F)c1 ≥ 10 µM
CNC(=O)c1ccc(NCC#Cc2nc3c(N[C@@H]4CCN(C)C[C@@H]4F)cccn3c2C(F)(F)F)c(OC)c1 ≥ 10 µM
CNC(=O)c1ccc(NCC#Cc2nc3c(N[C@@H]4CCN(C)C[C@@H]4F)cc(F)cn3c2SC(F)(F)F)c(OC)c1 5 to 8 µM
CCOc1cc(C(=O)NC)ccc1NCC#Cc1nc2c(N[C@@H]3CCN(C)C[C@@H]3F)cccn2c1CC(F)(F)F ≥ 10 µM
COc1cc(C(=O)NC2CC2)ccc1NCC#Cc1nc2c(N[C@@H]3CCN(C)C[C@@H]3F)cccn2c1SC(F)(F)F 5 to 8 µM

Report IC50 for CNC(=O)c1ccc(NCC#Cc2nc3c(N[C@H]4Cc5cncn5C4)cccn3c2SC(F)(F)F)c(OC)c1 please.
5 to 8 µM

Report IC50 for CNC(=O)c1ccc(NCC#Cc2nc3c(NC4CC5(C4)CN(CC(F)F)C5)cccn3c2SC(F)(F)F)c(OC)c1 please.
5 to 8 µM
